// provenance: patent US9549922B2

Experiment: in vivo
Conditions: athymic, mouse
Observable: MTD at 14 days (mg/kg)
Answer in mg/kg, number only, no unit symbol.

What measured MTD at 14 days goes with COc1cc2nccc(Oc3ccc(NC(=O)NC4CC4)c(Cl)c3)c2cc1C(N)=O.CS(=O)(=O)O [E7080] ?
15
